Listing of entries alongside the reported LC50 (50% net cell death).
# Protocol Text: Antitumor activity against human NCI-H322 cells
# Assay type: functional
Express the result in µM but write the number alone.

See these solved cases before continuing.
Cc1cc2[nH]c(=O)c3c4ccccc4cn3c2cc1C 55
O=c1[nH]c2cc(Cl)c(Cl)cc2n2cc3ccccc3c12 55
O=c1[nH]c2ccccc2n2cc3ccccc3c12 89.1

For reference, reported LC50 (50% net cell death) for COc1ccc2c(c1)[nH]c(=O)c1c3ccccc3cn21 stands at 7.76

----------
# System: OVCAR-4
# Protocol Text: Antitumor activity against human OVCAR4 cells
# Format: functional
# Experimental Setup: read-out: pTGI (converted)
Assay Readout: TGI (µM)
Express the result in µM but write the number alone.

COc1ccc2c(c1)[nH]c(=O)c1c3ccccc3cn21 5.13
O=c1[nH]c2cc(Cl)c(Cl)cc2n2cc3ccccc3c12 50.1
O=c1[nH]c2ccccc2n2cc3ccccc3c12 89.1

Now take the following molecule into account.
For reference, reported TGI for Cc1cc2[nH]c(=O)c3c4ccccc4cn3c2cc1C stands at 27.5
